Reference for the values: PubChem BioAssay AID1963960

- System: MDA-MB-468 spheroids with HUVEC/MSC, viability
- method_description: Anticancer human tumor MDA-MB-468 cell line growth inhibition [PI3K];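 note: spheroids exposed to agents for seven days before readout; 100% = DMSO vehicle control viability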
- particulars: second compound 1 µM; first compound 3 µM; stronger effect = lower value
measurement_name: viability, T/C

> print(dat)
                                   molecule  experimental.result
1  Cn1cnc2c(F)c(Nc3ccc(Br)cc3Cl)c(C(=O)NOCCO)cc21 + COc1c(OCCCN2CCOCC2)ccc2c3n(c(=NC(=O)c4cnc(N)nc4)nc12)CCN3                0.51%
2  Cn1cnc2c(F)c(Nc3ccc(Br)cc3Cl)c(C(=O)NOCCO)cc21 + CC(Nc1ncnc2nc[nH]c12)c1cc2cccc(Cl)c2c(=O)n1-c1ccccc1                58.8%
3  Cn1cnc2c(F)c(Nc3ccc(Br)cc3Cl)c(C(=O)NOCCO)cc21 + Cc1nc(NC(=O)N2CCCC2C(N)=O)sc1-c1ccnc(C(C)(C)C(F)(F)F)c1                25.6%
4  Cn1cnc2c(F)c(Nc3ccc(Br)cc3Cl)c(C(=O)NOCCO)cc21 + CC(Nc1ccc2c(c1)OCCn1cc(N3C(=O)OCC3C(F)F)nc1-2)C(N)=O                  39%
